Assay details: molar heat capacity at constant pressure
Condition summary: 313.15 K; 101.33 kPa; Crystal; Small sample (50 mg) DSC
Value type: molar heat capacity at constant pressure (J/K/mol)

Structure smiles string: Nc1cc(O)nc(O)n1
Value type: molar heat capacity at constant pressure
Uom: J/K/mol
Readout number: 149
//
Structure smiles string: Cn1c(N)cc(=O)[nH]c1=O
Value type: molar heat capacity at constant pressure
Uom: J/K/mol
Readout number: 168.5
//
Structure smiles string: Nc1c[nH]c(=O)[nH]c1=O
Value type: molar heat capacity at constant pressure
Uom: J/K/mol
Readout number: 147
//
Structure smiles string: Cn1c(N)cc(=O)n(C)c1=O
Value type: molar heat capacity at constant pressure
Uom: J/K/mol
Readout number: 195.2

###

Assay details: molar heat capacity at constant pressure
Condition summary: 308.15 K; 101.33 kPa; Crystal; Small sample (50 mg) DSC
Value type: molar heat capacity at constant pressure (J/K/mol)

Molecule: Cn1c(N)cc(=O)[nH]c1=O [6-amino-1-methyluracil]
Uom: J/K/mol
Readout number: 168

Molecule: Nc1c[nH]c(=O)[nH]c1=O [2,4(1H,3H)-pyrimidinedione, 5-amino-]
Uom: J/K/mol
Readout number: 146.2

Molecule: Cn1c(N)cc(=O)n(C)c1=O [6-amino-1,3-dimethyluracil]
Uom: J/K/mol
Readout number: 193.1

Molecule: Nc1cc(O)nc(O)n1 [6-aminouracil]
Uom: J/K/mol
Readout number: 148.2

###

Assay details: molar heat capacity at constant pressure
Condition summary: 328.15 K; 101.33 kPa; Crystal; Small sample (50 mg) DSC
Value type: molar heat capacity at constant pressure (J/K/mol)

Compound: Nc1cc(O)nc(O)n1 [6-aminouracil]
Value type: molar heat capacity at constant pressure
Readout number: 151
--
Compound: Cn1c(N)cc(=O)n(C)c1=O [6-amino-1,3-dimethyluracil]
Value type: molar heat capacity at constant pressure
Readout number: 201.6
--
Compound: Cn1c(N)cc(=O)[nH]c1=O [6-amino-1-methyluracil]
Value type: molar heat capacity at constant pressure
Readout number: 171
--
Compound: Nc1c[nH]c(=O)[nH]c1=O [2,4(1H,3H)-pyrimidinedione, 5-amino-]
Value type: molar heat capacity at constant pressure
Readout number: 149.1

###

Assay details: molar heat capacity at constant pressure
Condition summary: 303.15 K; 101.33 kPa; Crystal; Small sample (50 mg) DSC
Value type: molar heat capacity at constant pressure (J/K/mol)

Compound: Nc1c[nH]c(=O)[nH]c1=O [2,4(1H,3H)-pyrimidinedione, 5-amino-]
Uom: J/K/mol
molar heat capacity at constant pressure: 145.5
//
Compound: Cn1c(N)cc(=O)n(C)c1=O [6-amino-1,3-dimethyluracil]
Uom: J/K/mol
molar heat capacity at constant pressure: 191
//
Compound: Cn1c(N)cc(=O)[nH]c1=O [6-amino-1-methyluracil]
Uom: J/K/mol
molar heat capacity at constant pressure: 167
//
Compound: Nc1cc(O)nc(O)n1 [6-aminouracil]
Uom: J/K/mol
molar heat capacity at constant pressure: 147.6

###

Assay details: molar heat capacity at constant pressure
Condition summary: 333.15 K; 101.33 kPa; Crystal; Small sample (50 mg) DSC
Value type: molar heat capacity at constant pressure (J/K/mol)

Compound: Nc1c[nH]c(=O)[nH]c1=O [2,4(1H,3H)-pyrimidinedione, 5-amino-]
Readout number: 150
--
Compound: Cn1c(N)cc(=O)[nH]c1=O [6-amino-1-methyluracil]
Readout number: 171.4
--
Compound: Nc1cc(O)nc(O)n1 [6-aminouracil]
Readout number: 151.6
--
Compound: Cn1c(N)cc(=O)n(C)c1=O [6-amino-1,3-dimethyluracil]
Readout number: 204

These data points were gathered from the NIST ThermoML archive (doi:10.1021/je6005168).
